- study_system: D93, recombinant humanized IgG1 kappa antibody targeting denatured-collagen
- assay_comment: competition ELISA on coated human dn-collagen IV
Square brackets hold non-standard residues; d marks the D form. Ends that are not written are not given here. Hyp = O=C(O)[C@@H]1C[C@@H](O)CN1
reported_property: % inhibition of D93 binding to dn-collagen IV, peptide 100 µM (%)

{"binder": "L[Hyp]GL[Hyp]G [synthetic peptide No. 14, LPGLPG (SEQ ID NO: 25)]", "unit_abbreviation": "%", "quantitative_result": 6.5}
{"binder": "F[Hyp]GP[Hyp]GPDGL[Hyp]GSMGP[Hyp]G [synthetic peptide No. 7, … (SEQ ID NO: 36)]", "unit_abbreviation": "%", "quantitative_result": 89.5}
{"binder": "L[Hyp]GP[Hyp]G [synthetic peptide No. 16, LPGPPG (SEQ ID NO: 24)]", "unit_abbreviation": "%", "quantitative_result": 52.5}

[1] [Hyp]GAKGLPGP[Hyp]GP[Hyp]GPY [synthetic peptide No. 12, … (SEQ ID NO: 2)]
[2] GPPGPPG (also: hydroxyproline at marked P positions, if any, marking lost) [synthetic peptide No. 23, GPPGPPG (SEQ ID NO: 33)]
Recorded % inhibition of D93 binding to dn-collagen IV, peptide 100 µM values differ for 1 and 2 ; which one is higher? Return value: the label identifying the chosen record. 1
(1: 93.5%, 2: 1.5%)
